Data origin, for the record: ChEMBL document CHEMBL1158971

Experiment: Toxicity against brine shrimp assessed as mortality at 25 ppm after 6 hrs
Type: organism-based
Details: artemia, in vivo; read-out: Activity
Below, each entry is listed alongside its reported mortality at 6 h, 25 ppm.
Give a bare numeral; the unit % is implied.

Some solved cases for reference:
CC(=O)/C=C/c1c[nH]c2ccccc12 0
Cc1cccc2c1[nH]c1ccccc12 100
CC(=O)c1nccc2c1[nH]c1ccccc12 21

"CC(=O)/C=C/C(C)=C(\C)c1c[nH]c2ccccc12" has a reported mortality at 6 h, 25 ppm of 20

"CC(=O)/C=C/Cc1c[nH]c2ccccc12" has a reported mortality at 6 h, 25 ppm of 0

"CC(=O)/C=C/c1ccc(C)c(C)c1C" has a reported mortality at 6 h, 25 ppm of 50
